All values here come from the Human Domainome abundance scans (Beltran et al. 2025).

B1: POU domain, class 3, transcription factor 2, residues 262 to 338; numbered along this chain, P20265 (parent)
chain: EDTPTSDDLEQFAKQFKQRRIKLGFTQADVGLALGTLYGNVFSQTTICRFEALQLSFKNMCKLKPLLNKWLEEADSS

Variants of: B1
assay.text: abundance fitness (aPCA) (normalised: wild type 0, dead -1); higher = more abundant; growth selection in yeast, the domain comes from the species named
measurement.conditions: Homo sapiens
Returns 1 (yes) if the recorded abundance fitness is greater than or equal to -0.2, and 0 (no) otherwise.

>  <mutant.designation>
G39S

>  <group>
0 (no)

$$$$
>  <mutant.designation>
G31S

>  <group>
1 (yes)

$$$$
>  <mutant.designation>
L66P

>  <group>
0 (no)

$$$$
>  <mutant.designation>
R19M

>  <group>
1 (yes)

$$$$
>  <mutant.designation>
S56K

>  <group>
1 (yes)

$$$$
>  <mutant.designation>
N68C

>  <group>
1 (yes)

$$$$
>  <mutant.designation>
C48M

>  <group>
1 (yes)

$$$$
>  <mutant.designation>
K69V

>  <group>
0 (no)

$$$$
>  <mutant.designation>
Y38K

>  <group>
0 (no)

$$$$
>  <mutant.designation>
E72L

>  <group>
1 (yes)

$$$$
>  <mutant.designation>
G24A

>  <group>
0 (no)

$$$$
>  <mutant.designation>
L37H

>  <group>
1 (yes)

$$$$
>  <mutant.designation>
L66G

>  <group>
0 (no)

$$$$
>  <mutant.designation>
Q54L

>  <group>
0 (no)

$$$$
>  <mutant.designation>
E73W

>  <group>
1 (yes)

$$$$
>  <mutant.designation>
D75H

>  <group>
1 (yes)

$$$$
>  <mutant.designation>
A28F

>  <group>
0 (no)

$$$$
>  <mutant.designation>
A28E

>  <group>
1 (yes)

$$$$
>  <mutant.designation>
N59P

>  <group>
0 (no)

$$$$
>  <mutant.designation>
I21Y

>  <group>
0 (no)

$$$$
>  <mutant.designation>
R20F

>  <group>
0 (no)

$$$$
>  <mutant.designation>
F57E

>  <group>
1 (yes)

$$$$
>  <mutant.designation>
L34N

>  <group>
0 (no)

$$$$
>  <mutant.designation>
S56W

>  <group>
0 (no)

$$$$
>  <mutant.designation>
G31A

>  <group>
1 (yes)

$$$$
